System: NCI-H522
Procedure Text: NCI tumour cell line growth inhibition, 48 h
Activity calls are given as the source filed them. Cut-off read from the data, not from the text of the source: active = GI50 up to about 1.1 µM and inactive = higher.
Each entry below lists one item and its recorded GI50 value.

{"Compound": "C=CCCCN1CCCCC1=S", "Assay Target": "NCI-H522", "GI50": "> 100 µM (inactive)"}
{"Compound": "CCOC(=O)Nc1cc2ccccc2c(/N=N/c2ccccc2)c1O", "Assay Target": "NCI-H522", "GI50": "29.6 µM (inactive)"}
{"Compound": "CC12CCC([C@H](N3CCOCC3)/C1=N\\OCCN1CCCC1)C2(C)C (stereo partly specified)", "Assay Target": "NCI-H522", "GI50": "> 100 µM (inactive)"}
{"Compound": "CCOC(=O)c1c(C)n(-c2ccc(C)cc2)c(=O)c2ccccc2c(=O)c2c(=O)ccc(=O)c1=2", "Assay Target": "NCI-H522", "GI50": "18.3 µM (inactive)"}
{"Compound": "Cn1cc(NC(=O)[C@H]2CCC(N)=N2)cc1C(=O)NCCC(=N)N", "Assay Target": "NCI-H522", "GI50": "> 100 µM (inactive)"}
{"Compound": "O=C(O)C1=CNC(C(=O)O)=NN1", "Assay Target": "NCI-H522", "GI50": "> 100 µM (inactive)"}
{"Compound": "Cc1ccc(C2(c3ccc(C)c(O)c3C)CCN(C)CC2)c(C)c1O", "Assay Target": "NCI-H522", "GI50": "> 100 µM (inactive)"}
{"Compound": "O=C(N/C(=C\\c1cc(Cl)ccc1Cl)c1nc2cc(Cl)ccc2[nH]1)c1ccccc1", "Assay Target": "NCI-H522", "GI50": "12.4 µM (inactive)"}
{"Compound": "CCOC(=O)c1sc2c(c1OC(=O)c1ccccc1)c(=O)n(-c1ccccc1)c(=S)n2-c1ccccc1", "Assay Target": "NCI-H522", "GI50": "23.6 µM (inactive)"}
{"Compound": "Cc1ccc(-c2cc(=O)c3cc(C)c(C)c(C(=O)O)c3o2)cc1", "Assay Target": "NCI-H522", "GI50": "24.3 µM (inactive)"}
{"Compound": "Nn1c(S)nnc1N/N=C1/C(=O)Nc2ccccc21", "Assay Target": "NCI-H522", "GI50": "44.9 µM (inactive)"}
